// data source = PubChem BioAssay

target: Dihydroorotate dehydrogenase (quinone), mitochondrial (Plasmodium falciparum (isolate 3D7)); experiment: PfDHODH enzyme inhibitors, primary screen, biochemical, C-terminal His tag, absorbance 600 nm (AID 1175); details: DCIP absorbance 600 nm, higher = more signal, called active from +8 up or from −8 down;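 note: recombinant parasite enzyme with a five histidine tag at its C terminus; test concentration not given here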
Active and inactive are the calls of the source.
PARAMETER: composite z-score

Req: Param item = CCCCCN1CC=CC23O[C@@H]4/C=C\CCCOC(=O)C4[C@H]2C(=O)N(CCO)[C@@H]3C1=O (some centres undefined) ; retrieve measured composite z-score.
Resp: -0.195 (inactive)

Req: Record: `O=C(c1ccccc1)N1Cc2ccccc2C[C@@]2(N=C(c3ccc(OCCCO)cc3)O[C@H]2c2ccccc2)C1=O`
Resp: 0.23 (inactive)

Req: Request: `C=C(CCCC)C(=O)CC[C@@H](OC(C)=O)c1ccc(OCCO)cc1`
Resp: -1.78 (inactive)

Req: Another molecule to look at: `O=C(CS)NCCCCCCNC(=O)[C@H]1C[C@H]2C(=O)NCC(=O)N2[C@H]1c1cccc(OCCO)c1`
Resp: -0.59 (inactive)

Req: Next entry: `CCc1cccc(NC(=O)O[C@H]2[C@H](OC(=O)Nc3ccccc3-c3ccccc3)[C@H](OC(=O)Nc3ccccc3-c3ccccc3)[C@@H](OC)O[C@@H]2CO)c1`
Resp: -0.371 (inactive)

Req: # iterate: `CC(C)N1C(=O)[C@@]2(Cc3ccccc31)c1ccccc1C(=O)N(Cc1ccccc1)[C@H]2c1ccc(CO)cc1`
Resp: -19.1 (active)

Req: Try the molecule `CN(C)CCCCNC(=O)[C@H]1C[C@H]2C(=O)N[C@@H](CCCCN(C)C)C(=O)N2[C@H]1c1ccc(O)cc1`
Resp: 0.245 (inactive)

Req: And what about the molecule `COCCCNC(=O)[C@@]1(Cc2ccccc2I)c2ccccc2C(=O)N(Cc2ccccc2OC)[C@H]1c1ccc(CO)cc1` ?
Resp: 0.671 (inactive)

Req: Can you check [N-]=[N+]=Nc1ccccc1C[C@@]1(C(=O)NCC(O)CO)N=C(c2ccc(OCCCO)cc2)O[C@@H]1c1ccccc1N=[N+]=[N-] (some centres undefined) next?
Resp: 0.791 (inactive)

Req: # repeat for `C=CCNC(=O)[C@H]1[C@@H]2C(=O)O[C@@H](c3ccccc3)[C@@H](c3ccccc3)N2[C@@H](c2ccc(O)cc2)[C@]12C(=O)Nc1ccc(C#CCC(C(=O)OC)C(=O)OC)cc12`
Resp: -7.4 (inactive)

Req: Try this molecule next: `COCCCNC(=O)[C@@]1(Cc2ccccc2I)c2ccccc2C(=O)N(Cc2ccccc2C(F)(F)F)[C@H]1c1ccc(CO)cc1`
Resp: 0.543 (inactive)

Req: Here is the next molecule: `COc1ccc(C(=O)Nc2ccc(CN3C(=O)[C@]4(O[C@H](CC(=O)N(CCO)Cc5ccccc5)[C@@H]([Si](C)(C)c5ccc(OC)cc5)[C@@H]4C)c4ccccc43)cc2)cc1`
Resp: -0.633 (inactive)

Req: How about this molecule: `COC(=O)[C@@]1(Cc2ccc(F)cc2)[C@H]2c3cc(C(=O)N(C)C)n(Cc4ccc(C(F)(F)F)nc4)c3C[C@H]2CN1C(=O)c1ccccc1`
Resp: 0.0058 (inactive)

Req: And what about the molecule `CCOC(=O)C[C@H]1[C@H](OC(=O)Cc2ccc3c(c2)OCO3)[C@@H](NC(=O)CC(C)C)c2cc(OCCCO)ccc2N1C(=O)c1ccc2ccccc2n1` ?
Resp: -1.94 (inactive)
